Test system: MDA-MB-453
Experiment: normalised response (% of control), CellTiter-Glo; higher = more viable cells (100 = DMSO, 0 = benzethonium chloride kill control)
Conditions: incubation time: 72 h

MOLECULE	normalised response (%)
CC[C@@H]1C(=O)OC[C@@H]1Cc1cncn1C [Pilocarpine] (4000 nM)	98.9
COc1cc(F)c(F)c(Nc2ccc(I)cc2F)c1NS(=O)(=O)C1(C[C@H](O)CO)CC1 [Refametinib] (1000 nM)	96.3
Nc1nc2[nH]cnc2c(=S)[nH]1 [Thioguanine] (10 nM)	87.4

* * *

The following compounds are listed with their measured normalised viability values.
Test system: HCC1599
Experiment: normalised viability (% of control), CellTiter-Blue; higher = more viable cells (about 100 = DMSO control)
Conditions: 1000 nM; incubation time: 72 h

SMI	normalised viability [%]
CC(=O)c1c(C)c2cnc(Nc3ccc(N4CCNCC4)cn3)nc2n(C2CCCC2)c1=O	109
O=NN(CCCl)C(=O)NCCCl	83.5
CC(C)(C)c1cnc(CSc2cnc(NC(=O)C3CCNCC3)s2)o1	17.4
Nc1ncn([C@@H]2O[C@H](CO)[C@@H](O)[C@H]2O)c(=O)n1	72.8
O=P(O)(O)C(O)(Cn1ccnc1)P(=O)(O)O	75.3

* * *

Tested on: MDA-MB-231
Assay: normalised viability (% of control), CellTiter-Blue; higher = more viable cells (about 100 = DMSO control)
Settings: 10 nM; incubation time: 72 h
PROPERTY_LABEL: normalised viability

MOLECULE	PROPERTY_LABEL	RECORDED_VALUE
COc1cc(F)c(F)c(Nc2ccc(I)cc2F)c1NS(=O)(=O)C1(C[C@H](O)CO)CC1	normalised viability	73.7%
CC(C)(C)c1cnc(CSc2cnc(NC(=O)C3CCNCC3)s2)o1	normalised viability	106%
C[C@]1(O)C[C@@H](c2nc(-c3ccc4ccc(-c5ccccc5)nc4c3)c3c(N)nccn32)C1	normalised viability	84.4%
COc1cc2c(cc1O)CC[C@@H]1[C@@H]2CC[C@]2(C)[C@@H](O)CC[C@@H]12	normalised viability	83.9%
Cn1cc(C2=Nc3cc(NC(=O)C(N)C4CCCCC4)cc4c3C2=CNNC4=O)cn1 (stereo unspecified)	normalised viability	81.7%
CC1=C2C[C@H]3[C@@H](CC=C4C[C@@H](O)CC[C@@]43C)[C@@H]2CC[C@]12O[C@@H]1C[C@H](C)CN[C@H]1[C@H]2C	normalised viability	107%

* * *

Test system: HCC1143
Assay: normalised response (% of control), CellTiter-Glo; higher = more viable cells (100 = DMSO, 0 = benzethonium chloride kill control)
Settings: incubation time: 72 h
Decide by normalised response: equal to or exceeding 80% means MET, less means NOT MET.

COMPOUND	CATEGORY_LABEL
CC[C@@H]1C(=O)OC[C@@H]1Cc1cncn1C [Pilocarpine] (40000 nM)	MET
CC(=O)c1c(C)c2cnc(Nc3ccc(N4CCNCC4)cn3)nc2n(C2CCCC2)c1=O [Palbociclib] (10000 nM)	NOT MET
CC(=O)N(O)CCCCCNC(=O)CCC(=O)N(O)CCCCCNC(=O)CCC(=O)N(O)CCCCCN [Deferoxamine] (10000 nM)	NOT MET
CC1(C)CCC(CN2CCN(c3ccc(C(=O)NS(=O)(=O)c4ccc(NCC5CCOCC5)c([N+](=O)[O-])c4)c(Oc4cnc5[nH]ccc5c4)c3)CC2)=C(c2ccc(Cl)cc2)C1 [ABT-199] (10000 nM)	MET
Cc1ccc([N+](=O)[O-])cc1S(=O)(=O)N(C)/N=C/c1cnc2ccc(Br)cn12 [PIK-75] (10000 nM)	NOT MET
Cn1cnc2c(F)c(Nc3ccc(Br)cc3Cl)c(C(=O)NOCCO)cc21 [Selumetinib] (10000 nM)	NOT MET

* * *

Tested on: BT-474
Experiment: normalised response (% of control), CellTiter-Glo; higher = more viable cells (100 = DMSO, 0 = benzethonium chloride kill control)
Settings: incubation time: 72 h
PROPERTY_LABEL: normalised response (%)

COMPOUND	TARGET_OR_SYSTEM	PROPERTY_LABEL	RECORDED_VALUE
CC1(C)CNc2cc(NC(=O)c3cccnc3NCc3ccncc3)ccc21 [Motesanib] (100 nM)	BT-474	normalised response	101
Cn1cnc2c(F)c(Nc3ccc(Br)cc3Cl)c(C(=O)NOCCO)cc21 [Selumetinib] (100 nM)	BT-474	normalised response	84.2
Nc1ncn([C@@H]2O[C@H](CO)[C@@H](O)[C@H]2O)c(=O)n1 [Azacitidine] (100 nM)	BT-474	normalised response	102
COc1cc2c(cc1O)CC[C@@H]1[C@@H]2CC[C@]2(C)[C@@H](O)CC[C@@H]12 [2-methoxyestradiol] (100 nM)	BT-474	normalised response	98.5
Cc1sc2c(c1C)C(c1ccc(Cl)cc1)=N[C@@H](CC(=O)OC(C)(C)C)c1nnc(C)n1-2 [(+)JQ1] (100 nM)	BT-474	normalised response	86.2

* * *

The following molecules are listed with their measured drug sensitivity score values.
Test system: HDQ-P1
Experiment: drug sensitivity score (DSS), CellTox Green (DSS (AUC-based score)); higher = stronger drug effect (viability inhibition or cytotoxicity); extreme values may be limits of the assay
Settings: incubation time: 72 h
PROPERTY_LABEL: drug sensitivity score

MOLECULE	RECORDED_VALUE
Nc1ncn([C@@H]2O[C@H](CO)[C@@H](O)[C@H]2O)c(=O)n1	0
Cc1ccc([N+](=O)[O-])cc1S(=O)(=O)N(C)/N=C/c1cnc2ccc(Br)cn12	11.6
Cc1sc2c(c1C)C(c1ccc(Cl)cc1)=N[C@@H](CC(=O)OC(C)(C)C)c1nnc(C)n1-2 [(+)JQ1]	0
Cn1cc(C2=Nc3cc(NC(=O)C(N)C4CCCCC4)cc4c3C2=CNNC4=O)cn1 (stereo not given)	7.95
Nc1nc2[nH]cnc2c(=S)[nH]1	0

* * *

System: HCC1599
Test: normalised response (% of control), CellTiter-Glo; higher = more viable cells (100 = DMSO, 0 = benzethonium chloride kill control)
Conditions: incubation time: 72 h

MOLECULE	TARGET_OR_SYSTEM	normalised response / %
Nc1nc2[nH]cnc2c(=S)[nH]1 [Thioguanine] (100 nM)	HCC1599	96.5
CC(=O)O[C@@]12CO[C@@H]1C[C@H](O)[C@@]1(C)C(=O)[C@H](O)C3=C(C)[C@@H](OC(=O)[C@H](O)[C@@H](NC(=O)OC(C)(C)C)c4ccccc4)C[C@@](O)([C@@H](OC(=O)c4ccccc4)[C@H]21)C3(C)C [Docetaxel] (10 nM)	HCC1599	71.9
Cc1ccc([N+](=O)[O-])cc1S(=O)(=O)N(C)/N=C/c1cnc2ccc(Br)cn12 [PIK-75] (100 nM)	HCC1599	47.9
COc1cc2c(cc1O)CC[C@@H]1[C@@H]2CC[C@]2(C)[C@@H](O)CC[C@@H]12 [2-methoxyestradiol] (100 nM)	HCC1599	89.4
CC(=O)c1c(C)c2cnc(Nc3ccc(N4CCNCC4)cn3)nc2n(C2CCCC2)c1=O [Palbociclib] (100 nM)	HCC1599	94.4
C[C@]1(O)C[C@@H](c2nc(-c3ccc4ccc(-c5ccccc5)nc4c3)c3c(N)nccn32)C1 [Linsitinib] (100 nM)	HCC1599	107

* * *

The following molecules are listed with their measured normalised response values.
System: HCC1937
Test: normalised response (% of control), CellTiter-Glo; higher = more viable cells (100 = DMSO, 0 = benzethonium chloride kill control)
Details: incubation time: 72 h
PROPERTY_LABEL: normalised response (%)

MOLECULE	UNIT_TEXT	RECORDED_VALUE
Nc1ncn([C@@H]2O[C@H](CO)[C@@H](O)[C@H]2O)c(=O)n1 [Azacitidine] (100 nM)	%	97
CC(=O)N(O)CCCCCNC(=O)CCC(=O)N(O)CCCCCNC(=O)CCC(=O)N(O)CCCCCN [Deferoxamine] (100 nM)	%	89.7
O=C1CN2Cc3c(ccc(Cl)c3Cl)N=C2N1 [Anagrelide] (100 nM)	%	95.8
Cn1cnc2c(F)c(Nc3ccc(Br)cc3Cl)c(C(=O)NOCCO)cc21 [Selumetinib] (100 nM)	%	85
O=NN(CCCl)C(=O)NCCCl [Carmustine] (100 nM)	%	95.8
C[C@]1(O)C[C@@H](c2nc(-c3ccc4ccc(-c5ccccc5)nc4c3)c3c(N)nccn32)C1 [Linsitinib] (100 nM)	%	107
C[C@]12CC[C@@H]3c4ccc(OC(=O)N(CCCl)CCCl)cc4CC[C@H]3[C@@H]1CC[C@@H]2O [Estramustine] (100 nM)	%	95.2

* * *

The following compounds are listed with their measured drug sensitivity score values.
Test system: HDQ-P1
Assay: drug sensitivity score (DSS), CellTiter-Blue viability (DSS (AUC-based score)); higher = stronger viability inhibition; extreme values may be limits of the assay
Settings: incubation time: 72 h
PROPERTY_LABEL: drug sensitivity score

SMI	TARGET_OR_SYSTEM	RECORDED_VALUE
O=NN(CCCl)C(=O)NCCCl	HDQ-P1	0
Nc1ncn([C@@H]2O[C@H](CO)[C@@H](O)[C@H]2O)c(=O)n1	HDQ-P1	0
CC(=O)c1c(C)c2cnc(Nc3ccc(N4CCNCC4)cn3)nc2n(C2CCCC2)c1=O	HDQ-P1	0
C[C@]1(O)C[C@@H](c2nc(-c3ccc4ccc(-c5ccccc5)nc4c3)c3c(N)nccn32)C1	HDQ-P1	6.19
Oc1ncnc2[nH]ncc12	HDQ-P1	0
C[C@]12CC[C@@H]3c4ccc(OC(=O)N(CCCl)CCCl)cc4CC[C@H]3[C@@H]1CC[C@@H]2O	HDQ-P1	0
CC(C)(C)c1cnc(CSc2cnc(NC(=O)C3CCNCC3)s2)o1	HDQ-P1	21.3
